target: human TLR8 (Homo sapiens, UniProt Q9NR97); construct: expressed in transfected cells; host or cells: HEK293 cells, transient transfection with TLR8 plasmid and NFκB-luc plasmid; assay: TLR8 cellular reporter assay (HEK293, NFκB-luc); assay type: cell-based; conditions: HEK293 cells transfected with CMV-TLR8 and NFκB-luc, 6 hours incubation; lowest effective concentration
Sequence (Q9NR97 27-1041): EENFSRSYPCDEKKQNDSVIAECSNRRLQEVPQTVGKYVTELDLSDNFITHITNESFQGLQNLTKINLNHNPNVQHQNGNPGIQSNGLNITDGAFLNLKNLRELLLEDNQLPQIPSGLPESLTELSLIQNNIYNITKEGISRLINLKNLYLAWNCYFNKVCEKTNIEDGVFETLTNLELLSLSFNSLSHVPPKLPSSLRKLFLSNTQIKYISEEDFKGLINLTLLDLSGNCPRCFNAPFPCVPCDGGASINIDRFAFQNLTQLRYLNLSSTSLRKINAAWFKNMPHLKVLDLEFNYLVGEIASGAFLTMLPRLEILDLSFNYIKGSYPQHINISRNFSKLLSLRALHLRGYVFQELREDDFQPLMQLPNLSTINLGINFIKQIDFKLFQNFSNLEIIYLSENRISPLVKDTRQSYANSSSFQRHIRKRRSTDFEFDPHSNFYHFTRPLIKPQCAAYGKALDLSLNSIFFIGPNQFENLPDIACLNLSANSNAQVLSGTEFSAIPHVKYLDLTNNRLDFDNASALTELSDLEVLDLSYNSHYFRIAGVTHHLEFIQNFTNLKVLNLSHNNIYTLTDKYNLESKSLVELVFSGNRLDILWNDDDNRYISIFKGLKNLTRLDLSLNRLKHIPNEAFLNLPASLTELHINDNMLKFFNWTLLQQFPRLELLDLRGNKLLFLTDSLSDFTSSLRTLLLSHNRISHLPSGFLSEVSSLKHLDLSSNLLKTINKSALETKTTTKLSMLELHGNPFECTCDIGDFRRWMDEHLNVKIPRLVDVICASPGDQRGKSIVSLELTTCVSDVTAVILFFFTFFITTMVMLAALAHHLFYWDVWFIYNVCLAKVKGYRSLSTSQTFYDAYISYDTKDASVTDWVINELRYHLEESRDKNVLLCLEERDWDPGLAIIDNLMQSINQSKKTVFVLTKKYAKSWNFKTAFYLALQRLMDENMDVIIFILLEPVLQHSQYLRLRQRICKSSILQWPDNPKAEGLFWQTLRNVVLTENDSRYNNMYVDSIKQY
Items are presented alongside their recorded TLR8 LEC.

compound: CCCCCNc1nc(N)nc2ccn(Cc3ccccc3)c12 [Compound 29]
TLR8 LEC: >25 µM

compound: COc1cc(OC)nc(Cn2ccc3nc(N)nc(NCc4cc(C)on4)c32)n1 [Compound 180]
TLR8 LEC: >25 µM

compound: CCCCNc1nc(N)nc2ccn(Cc3cc4ccccc4cn3)c12 [Compound 50]
TLR8 LEC: >25 µM

compound: COCCNc1nc(N)nc2ccn(Cc3cscn3)c12 [Compound 132]
TLR8 LEC: >25 µM

compound: CCCC(C)Nc1nc(N)nc2ccn(Cc3ccc(OC)cc3)c12 (centres unmarked) [Compound 75]
TLR8 LEC: >25 µM
